- TGT: CDK1:CCNB1 (Homo sapiens (Human), UniProt P06493)
- Sequence (P06493 whole entry): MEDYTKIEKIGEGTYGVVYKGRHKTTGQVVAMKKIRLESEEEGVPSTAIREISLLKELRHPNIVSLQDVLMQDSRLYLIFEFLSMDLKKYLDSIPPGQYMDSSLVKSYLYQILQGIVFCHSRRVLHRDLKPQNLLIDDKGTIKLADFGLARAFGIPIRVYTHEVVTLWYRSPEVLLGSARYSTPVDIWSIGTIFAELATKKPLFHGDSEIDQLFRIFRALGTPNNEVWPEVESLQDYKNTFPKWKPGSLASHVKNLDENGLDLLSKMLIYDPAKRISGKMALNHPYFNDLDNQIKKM
- Sequence (P14635 whole entry partner): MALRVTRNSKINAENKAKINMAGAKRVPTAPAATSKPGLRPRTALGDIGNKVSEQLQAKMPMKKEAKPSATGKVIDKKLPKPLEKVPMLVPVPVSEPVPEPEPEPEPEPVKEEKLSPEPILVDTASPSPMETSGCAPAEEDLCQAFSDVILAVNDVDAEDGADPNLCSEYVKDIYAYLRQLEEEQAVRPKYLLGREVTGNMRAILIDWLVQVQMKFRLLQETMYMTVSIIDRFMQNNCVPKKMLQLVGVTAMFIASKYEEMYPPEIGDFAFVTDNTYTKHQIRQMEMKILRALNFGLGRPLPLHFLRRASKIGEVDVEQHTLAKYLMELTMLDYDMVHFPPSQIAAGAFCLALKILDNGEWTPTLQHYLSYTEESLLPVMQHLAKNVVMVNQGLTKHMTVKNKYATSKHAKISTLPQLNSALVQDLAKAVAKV
- ASSAY COMMENT: NanoBRET assay in MCF-7 cells, CDK1
- Assay type: cell-based
- RECORDED CONDITIONS: NanoBRET, transfected MCF-7 cells, 2 hours; n = 1 or average; read-out: CDK1 IC50
VALUE TYPE: IC50 (µM)

Illustrative cases are given below, each with its answer.
>>> df
                                   compound                                       tgt  value_type  measure_unit  result_value
0  CCNS(=O)(=O)N1CC[C@H](Nc2nc(N[C@@H](CC)[C@@H](C)O)nc3c2ncn3C)C1  CDK1:CCNB1 (Homo sapiens (Human), UniProt P06493)        IC50            µM           1.8
1  CC[C@H](CO)Nc1nc(N[C@H]2CCN(S(C)(=O)=O)C2)c2ncn(CC)c2n1  CDK1:CCNB1 (Homo sapiens (Human), UniProt P06493)        IC50            µM          1.04
2  CCn1cnc2c(N[C@H]3CCN(S(=O)(=O)CC(F)(F)F)C3)nc(N[C@@H](CO)C(C)C)nc21  CDK1:CCNB1 (Homo sapiens (Human), UniProt P06493)        IC50            µM         0.587
3  CCn1cnc2c(N[C@H]3CCN(S(=O)(=O)NC)C3)nc(N[C@@H](CC(F)(F)F)[C@@H](C)O)nc21 (relative stereo)  CDK1:CCNB1 (Homo sapiens (Human), UniProt P06493)        IC50            µM          3.83

P = CC[C@H](Nc1nc(N[C@H]2CCN(S(N)(=O)=O)C2)c2ncn(CC)c2n1)[C@@H](C)O
Q = CCNS(=O)(=O)N1CC[C@H](Nc2nc(N[C@@H](CO)CC3CC3)nc3c2ncn3CC)C1 (relative stereo)
R = O=S(=O)(c1ncc[nH]1)N1C[C@@H](F)[C@H](Nc2nc(N[C@@H](CO)C3CC3)nc3c2ncn3C(F)F)C1 (relative stereo)
stdin: Please rank these compounds by IC50 in descending order. // format: requested-order list of labels
stdout: P, Q, R
(P: 2.21 µM, Q: 0.671 µM, R: 0.115 µM)

---

- TGT: UniProt P06493
- ASSAY COMMENT: NanoBRET assay in MCF-7 cells, CDK1
- Format: cell-based
- RECORDED CONDITIONS: NanoBRET, transfected MCF-7 cells, 2 hours; n = 1 or average; read-out: CDK1 IC50
VALUE TYPE: IC50 (nM)

Answered examples (6):
In [3]: df
Out[3]:
                                   compound             tgt  value_type  result_value
0  CCn1cnc2c(N[C@@H]3CN(S(=O)(=O)c4ncc[nH]4)C[C@H]3F)nc(N[C@@H](CO)C3CC3)nc21 (relative stereo)  UniProt P06493        IC50           114
1  CC[C@H](Nc1nc(N[C@H]2CCN(S(=O)(=O)NC[C@H]3COCCO3)C2)c2ncn(CC)c2n1)[C@@H](C)O  UniProt P06493        IC50          2600
2  CCn1cnc2c(N[C@H]3CCN(S(=O)(=O)CCOC)C3)nc(N[C@@H](CO)C(C)C)nc21  UniProt P06493        IC50           875
3  CC[C@@H](CO)Nc1nc(N[C@H]2CCN(S(=O)(=O)NC)C2)c2ncn(CC)c2n1  UniProt P06493        IC50          5550
4  CC(C)[C@H](CO)Nc1nc(N[C@H]2C[C@@H](C)N(S(C)(=O)=O)C2)c2ncn(C(C)C)c2n1  UniProt P06493        IC50           844
5  CC[C@H](Nc1nc(N[C@H]2CCN(S(=O)(=O)NC)C2)c2ncn(CC)c2n1)C(C)(C)O  UniProt P06493        IC50          8370

1 = CCNS(=O)(=O)N1CC[C@H](Nc2nc(N[C@@H](C)C(C)(C)O)nc3c2ncn3CC)C1 (relative stereo)
2 = CC[C@H](Nc1nc(N[C@H]2CCN(S(N)(=O)=O)C2)c2ncn(CC)c2n1)C(C)=O
stdin: Please choose the item with the lower IC50 value from this pair: 1 and 2 // caller expects the label of the chosen entry
stdout: 1

---

- System: POLR2A Ser2 phosphorylation (CDK9)
- ASSAY COMMENT: POLR2A Ser2 phosphorylation imaging assay in MCF-7 cells
- Assay type: cell-based
- RECORDED CONDITIONS: Homo sapiens, MCF7, 2 h, MCF-7 cells, 2 hours; read-out: POLR2A Ser2 phosphorylation IC50
VALUE TYPE: IC50 (µM)

I = CCn1cnc2c(N[C@H]3CCN(S(=O)(=O)NC)C3)nc(-c3cccc4c3CC[C@H]4O)nc21
II = CC[C@H](Nc1nc(N[C@H]2CCN(S(=O)(=O)N[C@@H]3CCOC3)C2)c2ncn(CC)c2n1)[C@@H](C)O
stdin: I need your help: which of the pair I , II has higher IC50? Let me know the label of the one you choose.
stdout: II
(II: 23.6 µM, I: 15.4 µM)

---

IC50 values for the compounds below.
- Test system: POLR2A Ser2 phosphorylation (CDK9)
- ASSAY COMMENT: POLR2A Ser2 phosphorylation imaging assay in MCF-7 cells
- Type: cell-based
- RECORDED CONDITIONS: Homo sapiens, MCF7, 2 h, read-out: POLR2A Ser2 phosphorylation IC50

>>> df
                                   compound  result_value
0  CC(C)[C@H](CO)Nc1nc(N[C@H]2CCN(S(C)(=O)=O)C2)c2ncn(C(C)C)c2n1 [Compound 20]       > 30 µM
1  CCNS(=O)(=O)N1CC[C@H](Nc2nc(N[C@@H](CC)C(C)=O)nc3c2ncn3CC)C1 [Example 7]       24.2 µM
2  CCNS(=O)(=O)N1CC[C@H](Nc2nc(N[C@H](CC)C(C)=O)nc3c2ncn3CC)C1 [Example 12]       > 30 µM
3  CCNS(=O)(=O)N1CC[C@H](Nc2nc(N[C@H](CC)[C@@H](C)O)nc3c2ncn3CC)C1 (mixture of isomers) [Example 13]       > 30 µM
4  CCNS(=O)(=O)N1CC[C@H](Nc2nc(N[C@H](CC)[C@H](C)O)nc3c2ncn3CC)C1 [Example 11]       > 30 µM

GET /values?item= CCNS(=O)(=O)N1CC[C@H](Nc2nc(N[C@@H](CC)[C@@H](C)O)nc3c2ncn3CC)C1 [Compound 6] &system= POLR2A Ser2 phosphorylation (CDK9) returns IC50: > 19.3 µM

So the reported IC50 for CCNS(=O)(=O)N1CC[C@H](Nc2nc(N[C@@H](CC)[C@H](C)O)nc3c2ncn3CC)C1 [Example 8] , on POLR2A Ser2 phosphorylation (CDK9), turned out to be > 30 µM

---

- ASSAY COMMENT: Aqueous thermodynamic solubility, shake-flask
- Type: physicochemical
- RECORDED CONDITIONS: aqueous phosphate buffer, 25 °C, pH 7.4, aqueous buffer, thermodynamic from solid, phosphate buffer 0.1 M, pH 7.4, 24 hours
VALUE TYPE: solubility at 24 h (µM)

>>> df
                                   compound  result_value
0  CCn1cnc2c(N[C@H]3CCN(S(=O)(=O)C4CC4)C3)nc(N[C@@H](CO)C(C)C)nc21          39.2
1  CC[C@H](Nc1nc(N[C@H]2C[C@@H](C)N(S(C)(=O)=O)C2)c2ncn(C(C)C)c2n1)[C@@H](C)O           414
2  CCn1cnc2c(N[C@H]3CCN(S(=O)(=O)CF)C3)nc(N[C@@H](CO)C(C)C)nc21          97.2
3  CC[C@H](Nc1nc(N[C@H]2CCN(S(=O)(=O)N3CC(F)C3)C2)c2ncn(CC)c2n1)[C@@H](C)O           466
4  CC(C)[C@H](CO)Nc1nc(N[C@@H]2CN(S(C)(=O)=O)C[C@H]2C)c2ncn(C(C)C)c2n1          11.1
5  C[C@H](Nc1nc(N[C@@H]2CN(S(=O)(=O)c3ncc[nH]3)C[C@H]2F)c2ncn(C(F)F)c2n1)[C@@H](O)C(F)(F)F (relative stereo)           884
6  CCNS(=O)(=O)N1CC[C@H](Nc2nc(N[C@@H](CC)C(C)=O)nc3c2ncn3CC)C1           220
7  CC[C@H](Nc1nc(N[C@H]2CCN(S(=O)(=O)NC[C@@H]3COCCO3)C2)c2ncn(CC)c2n1)[C@@H](C)O           912

A = CC[C@H](Nc1nc(N[C@@H]2CN(S(=O)(=O)NC)C[C@H]2F)c2ncn(CC)c2n1)[C@@H](C)O (relative stereo)
B = CCn1cnc2c(N[C@H]3CCN(S(=O)(=O)NC)C3)nc(-c3cccc4c3CNC4=O)nc21
C = CCn1cnc2c(N[C@H]3CCN(S(=O)(=O)CCOC)C3)nc(N[C@@H](CO)C(C)C)nc21
D = CC(C)[C@H](CO)Nc1nc(N[C@H]2CCN(S(C)(=O)=O)C2)c2ncn(C3CC3)c2n1
stdin: Please list these compounds in decreasing order of solubility at 24 h. Put the labels in the requested order and write them down.
stdout: A, C, D, B
(A: 300 µM, C: 167 µM, D: 71.2 µM, B: 7 µM)
